# Target Or Test System: T1, human CD20 on cells (human, UniProt P11836 1-297)
# T1 sequence (looked up): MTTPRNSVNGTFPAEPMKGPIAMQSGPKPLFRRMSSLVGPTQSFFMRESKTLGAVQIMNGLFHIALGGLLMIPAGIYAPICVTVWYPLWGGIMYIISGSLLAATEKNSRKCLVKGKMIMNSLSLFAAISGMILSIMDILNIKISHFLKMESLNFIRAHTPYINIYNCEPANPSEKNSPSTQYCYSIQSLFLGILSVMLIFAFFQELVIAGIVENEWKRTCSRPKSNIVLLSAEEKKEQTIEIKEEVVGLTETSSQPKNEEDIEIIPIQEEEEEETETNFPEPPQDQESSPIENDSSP
# Procedure Summary: cell-based or functional assay
Endpoint Name: IC50, flow cytometry based human T cell mediated Ramos killing assay, E:T 10:1 (nM)
Please respond with the number in nM and leave the unit unwritten.

Reported IC50, flow cytometry based human T cell mediated Ramos killing assay, E:T 10:1 for T017000076 (bispecific antibody, CD20 x TCR bispecific Nanobody construct (cluster A); entry includes the FLAG3-HIS6 tag; also called 20CD019C07-35GS-T0170056G05-FLAG3-HIS6) EVQLVESGGGLVQPGGSLRLSCTFSGGTFSSYTMGWFRQAPGKEREFVAEVRWGGVTTYSNSLKDRFSISEDSVKNAVYLQMNSLKPEDTAVYYCAAVRQMYMTVVPDYWGQGTLVTVSSGGGGSGGGGSGGGGSGGGGSGGGGSGGGGSGGGGSEVQLVESGGGLVQPGGSLRLSCVASGDVHKINFLGWYRQAPGKEREKVAHISIGDQTDYADSAKGRFTISRDESKNMVYLQMNSLKPEDTAVYFCRAFSRIYPYDYWGQGTLVTVSSGAADYKDHDGDYKDHDIDYKDDDDKGAAHHHHHH was 0.3
